So I've got a bunch of variants here, and I need their yeast fitness values.
B1: tRNA (parent)
chain: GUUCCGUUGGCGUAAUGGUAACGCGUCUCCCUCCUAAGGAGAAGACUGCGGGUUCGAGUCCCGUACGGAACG

Variants of: B1
Assay: yeast fitness relative to wild type (ratio to wild type); higher = fitter; tRNA-Arg(CCU), competitive growth, 37 C, YPD
Fewer inactive variants are shown than the library holds.
A bare number is all that is needed in reply.

QUERY: Given A15C C46U , respond with its yeast fitness.
RESULT: 0.939

QUERY: Given U13G C31U U35A , respond with its yeast fitness.
RESULT: 0.51

QUERY: Given C29U G68A , respond with its yeast fitness.
RESULT: 0.937

QUERY: Given C62U A70U , respond with its yeast fitness.
RESULT: 0.996

QUERY: Given G18C A69U , respond with its yeast fitness.
RESULT: 0.695

QUERY: Given C5G U7C U54A C61U , respond with its yeast fitness.
RESULT: 0.557

QUERY: Given U26A G52U C55A , respond with its yeast fitness.
RESULT: 0.616

QUERY: Given A36G A40U G44A , respond with its yeast fitness.
RESULT: 1.06

QUERY: Given C24U A57G A65U , respond with its yeast fitness.
RESULT: 0.513

QUERY: Given G25A G41A A70U , respond with its yeast fitness.
RESULT: 0.713

QUERY: Given A14C C34U G39C , respond with its yeast fitness.
RESULT: 0.625

QUERY: Given C66U A70C , respond with its yeast fitness.
RESULT: 0.895

QUERY: Given U2C C4U , respond with its yeast fitness.
RESULT: 0.969

QUERY: Given A15G C29A A69C , respond with its yeast fitness.
RESULT: 0.517

QUERY: Given U16G G44C , respond with its yeast fitness.
RESULT: 0.912

QUERY: Given A57U A65U , respond with its yeast fitness.
RESULT: 0.618

QUERY: Given U47A G52A , respond with its yeast fitness.
RESULT: 0.821

QUERY: Given U13A G50C U59A , respond with its yeast fitness.
RESULT: 0.594

QUERY: Given G12C C24G G51C C62A U64G , respond with its yeast fitness.
RESULT: 0.59

QUERY: Given C5U G12C G44C , respond with its yeast fitness.
RESULT: 0.53

QUERY: Given A42U G63U , respond with its yeast fitness.
RESULT: 0.701

QUERY: Given U3A G51A , respond with its yeast fitness.
RESULT: 0.765

QUERY: Given G12A U28A A40U , respond with its yeast fitness.
RESULT: 0.647

QUERY: Given C4U C11U G25C , respond with its yeast fitness.
RESULT: 0.747

QUERY: Given C11U G56A G67U , respond with its yeast fitness.
RESULT: 0.526

QUERY: Given U7C A15C , respond with its yeast fitness.
RESULT: 0.639

QUERY: Given C22G C24U G44A , respond with its yeast fitness.
RESULT: 0.555

QUERY: Given C31U G48A A69U , respond with its yeast fitness.
RESULT: 0.757

QUERY: Given U8A A69C , respond with its yeast fitness.
RESULT: 0.915

QUERY: Given U13G C27A , respond with its yeast fitness.
RESULT: 0.628

QUERY: Given G9C U28C G44C , respond with its yeast fitness.
RESULT: 0.619

QUERY: Given A15C G48A , respond with its yeast fitness.
RESULT: 0.946

QUERY: Given G9A G41A , respond with its yeast fitness.
RESULT: 1.02

QUERY: Given G12A C61A , respond with its yeast fitness.
RESULT: 0.659

QUERY: Given U16C G68C , respond with its yeast fitness.
RESULT: 0.834

QUERY: Given A42U C62U , respond with its yeast fitness.
RESULT: 0.991

QUERY: Given U19C C24U A70U , respond with its yeast fitness.
RESULT: 0.849

QUERY: Given U13G A42C U64C , respond with its yeast fitness.
RESULT: 0.715

QUERY: Given G23A A36G C55G A69U , respond with its yeast fitness.
RESULT: 0.567

QUERY: Given U16C C55U A69U , respond with its yeast fitness.
RESULT: 0.629

QUERY: Given U32A C33U A42U C60A , respond with its yeast fitness.
RESULT: 0.595

QUERY: Given U13G G68A , respond with its yeast fitness.
RESULT: 0.798
